Recorded Papp, one value per entry.
Assay Protocol: in vitro
Test Settings: dog, MDCK
Description: Apparent permeability in MDCK cells

{"columns": ["Smiles", "Papp"],
 "data": [
  ["N#Cc1ccc(C(=O)Nc2ccc(F)c([C@]3(CF)CCSC(N)=N3)c2)nc1", "22 ×10⁻⁶ cm/s"],
  ["C=C1C[C@@](C)(c2cc(NC(=O)c3ccc(C#N)cn3)ccc2F)N=C(N)S1", "38 ×10⁻⁶ cm/s"],
  ["C[C@@]1(c2cc(NC(=O)c3ccc(C#N)cn3)ccc2F)CCSC(N)=N1", "12 ×10⁻⁶ cm/s"]
]}

====

Assay Protocol: physchem
Description: Dissociation constant, pKa of the compound by capillary electrophoresis method
The following molecules are listed with their measured pKa values.

{"columns": ["Smiles", "pKa"],
 "data": [
  ["C[C@@]1(c2cc(NC(=O)c3ccc(C#N)cn3)ccc2F)CCSC(N)=N1", 9],
  ["N#Cc1ccc(C(=O)Nc2ccc(F)c([C@]3(CF)CCSC(N)=N3)c2)nc1", 7.6],
  ["C=C1C[C@@](C)(c2cc(NC(=O)c3ccc(C#N)cn3)ccc2F)N=C(N)S1", 7.8]
]}

====

For Beta-secretase 1 (Homo sapiens, UniProt P56817), measured pIC50 is reported for the entries below.
pIC50: −log10 of the molar value.
Measurement Label: pIC50

{"columns": ["Molecule", "Target", "Measured Result"],
 "data": [
  ["C[C@@]1(c2cc(NC(=O)c3ccc(F)cn3)ccc2F)C=CSC(N)=N1", "Beta-secretase 1 (Homo sapiens, UniProt P56817)", 7.41],
  ["C=C1C[C@@](C)(c2cc(NC(=O)c3ccc(C#N)cn3)ccc2F)N=C(N)S1", "Beta-secretase 1 (Homo sapiens, UniProt P56817)", 8.04],
  ["C[C@@]1(c2cc(NC(=O)c3ccc(Cl)cn3)ccc2F)C=CSC(N)=N1", "Beta-secretase 1 (Homo sapiens, UniProt P56817)", 8.02],
  ["C[C@@]1(c2cc(NC(=O)c3ncc(C#N)cc3Cl)ccc2F)C=CSC(N)=N1", "Beta-secretase 1 (Homo sapiens, UniProt P56817)", 7.70],
  ["N#Cc1ccc(C(=O)Nc2ccc(F)c([C@]3(CF)CCSC(N)=N3)c2)nc1", "Beta-secretase 1 (Homo sapiens, UniProt P56817)", 7.80],
  ["COc1cnc(C(=O)Nc2ccc(F)c([C@]3(C)C=CSC(N)=N3)c2)cn1", "Beta-secretase 1 (Homo sapiens, UniProt P56817)", 7.68],
  ["C[C@@]1(c2cc(C(=O)Nc3ccc(Cl)cn3)ccc2F)CCSC(N)=N1", "Beta-secretase 1 (Homo sapiens, UniProt P56817)", 8.17],
  ["CC1(c2cccc(C(=O)Nc3ccc(Cl)cn3)c2)CCSC(N)=N1 (stereo not drawn)", "Beta-secretase 1 (Homo sapiens, UniProt P56817)", 5.84]
]}

====

Target: MDR1 (ABCB1, P-gp) (Homo sapiens)
Sequence (P08183 whole entry): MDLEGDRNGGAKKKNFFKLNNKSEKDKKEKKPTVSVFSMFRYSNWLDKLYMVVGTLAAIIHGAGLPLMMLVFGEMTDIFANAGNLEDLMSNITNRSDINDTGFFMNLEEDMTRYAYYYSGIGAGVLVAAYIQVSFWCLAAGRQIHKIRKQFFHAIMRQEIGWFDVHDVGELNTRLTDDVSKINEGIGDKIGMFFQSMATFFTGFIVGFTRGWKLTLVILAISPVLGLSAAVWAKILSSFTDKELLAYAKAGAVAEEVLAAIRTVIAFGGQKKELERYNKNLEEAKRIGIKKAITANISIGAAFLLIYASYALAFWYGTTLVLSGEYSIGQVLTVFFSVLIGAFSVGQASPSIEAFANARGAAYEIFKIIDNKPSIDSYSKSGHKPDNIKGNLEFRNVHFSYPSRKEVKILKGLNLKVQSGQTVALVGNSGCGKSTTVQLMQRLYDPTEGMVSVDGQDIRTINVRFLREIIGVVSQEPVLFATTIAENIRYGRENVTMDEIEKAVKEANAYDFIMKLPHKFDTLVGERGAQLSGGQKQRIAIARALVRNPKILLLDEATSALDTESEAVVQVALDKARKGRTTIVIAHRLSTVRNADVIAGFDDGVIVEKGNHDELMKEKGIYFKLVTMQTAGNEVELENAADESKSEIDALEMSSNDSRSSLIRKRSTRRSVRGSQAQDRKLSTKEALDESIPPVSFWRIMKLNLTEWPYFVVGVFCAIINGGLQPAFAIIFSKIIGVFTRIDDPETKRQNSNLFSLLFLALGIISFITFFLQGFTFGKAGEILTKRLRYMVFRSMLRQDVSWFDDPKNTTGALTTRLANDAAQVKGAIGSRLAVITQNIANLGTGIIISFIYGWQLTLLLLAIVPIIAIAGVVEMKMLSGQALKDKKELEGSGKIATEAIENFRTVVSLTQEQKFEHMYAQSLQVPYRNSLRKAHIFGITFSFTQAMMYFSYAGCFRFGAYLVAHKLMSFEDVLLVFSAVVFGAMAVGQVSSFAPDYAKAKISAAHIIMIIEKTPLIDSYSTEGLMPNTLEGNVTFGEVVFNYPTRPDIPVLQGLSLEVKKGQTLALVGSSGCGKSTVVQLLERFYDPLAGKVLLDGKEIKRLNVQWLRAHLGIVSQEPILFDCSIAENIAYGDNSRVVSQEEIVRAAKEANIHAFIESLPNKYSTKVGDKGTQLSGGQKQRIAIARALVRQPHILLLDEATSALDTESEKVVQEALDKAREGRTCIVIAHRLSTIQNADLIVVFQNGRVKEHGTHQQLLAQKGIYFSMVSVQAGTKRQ
Assay Protocol: in vitro
Test Settings: MDCK-MDR1
Description: Substrate activity at human MDR1 expressed in MDCK cells assessed as efflux ratio
Measured efflux ratio values are reported for all entries that follow.
Measurement Label: efflux ratio

{"columns": ["Smiles", "Target", "Measured Result"],
 "data": [
  ["N#Cc1ccc(C(=O)Nc2ccc(F)c([C@]3(CF)CCSC(N)=N3)c2)nc1", "MDR1 (ABCB1, P-gp) (Homo sapiens)", 22],
  ["C[C@@]1(c2cc(NC(=O)c3ccc(F)cn3)ccc2F)C=CSC(N)=N1", "MDR1 (ABCB1, P-gp) (Homo sapiens)", 2],
  ["COc1cnc(C(=O)Nc2ccc(F)c([C@]3(C)C=CSC(N)=N3)c2)cn1", "MDR1 (ABCB1, P-gp) (Homo sapiens)", 1.4],
  ["C=C1C[C@@](C)(c2cc(NC(=O)c3ccc(C#N)cn3)ccc2F)N=C(N)S1", "MDR1 (ABCB1, P-gp) (Homo sapiens)", 5.3],
  ["C[C@@]1(c2cc(NC(=O)c3ncc(C#N)cc3Cl)ccc2F)C=CSC(N)=N1", "MDR1 (ABCB1, P-gp) (Homo sapiens)", 20]
]}

Numbers sourced from ChEMBL document CHEMBL4811232.
